Target: Fructose-bisphosphate aldolase (Mycobacterium tuberculosis (strain ATCC 25618 / H37Rv))
Assay: Mtb FBA enzyme inhibitors, primary screen, biochemical, fluorescence, strain H37Rv (AID 588726)
Conditions: purified M. tuberculosis FBA, fluorescence read-out, at 1 µM
In all, about 360,000 compounds went through this assay and about 8,200 (2.3%) were called active. Cut-off read from the data, not from the text of the source: active = inhibition above about 27%; inactive = the rest. What follows is part of a selection rich in actives, with near analogues and random picks from the rest.
Answer with one of the outcomes active, inactive

Request: For FC(F)(F)c1ccccc1Cc1c(-c2ccccc2)nc2c3ccccc3ccn12 , what call appears in the results of this test?
Response: inactive

Request: For COc1ccc(S(=O)(=O)N2CCOC2CNC(=O)C(=O)NCc2ccc(F)cc2)cc1 (stereo not drawn) , what call appears in the results of this test?
Response: inactive

Request: For O=C(OCC(=O)N1CCc2ccccc21)c1ccc([N+](=O)[O-])cc1 , what call appears in the results of this test?
Response: inactive

Request: For Cc1nn(-c2ccccc2)nc1C(=O)OCC(=O)N1CCCCC1C (stereo not drawn) , what call appears in the results of this test?
Response: active

Request: For CCOC(=O)c1cc2cc(C)ccc2[nH]1 , what call appears in the results of this test?
Response: active

Request: For Cc1ccc2[nH]c(=O)c(COC(=O)c3ccccn3)cc2c1 , what call appears in the results of this test?
Response: inactive

Request: For Cc1ccc(S(=O)(=O)n2oc(=O)c(C3CCCCC3)c2N)cc1 , what call appears in the results of this test?
Response: inactive

Request: For Cc1nc2nc(COc3ccccc3)[nH]n2c(=O)c1C , what call appears in the results of this test?
Response: inactive

Request: For COCc1cc(=O)[nH]c(SC)n1 , what call appears in the results of this test?
Response: inactive

Request: For CCOC(=O)C=Cc1ccc(C(=O)OCC)[nH]1 , what call appears in the results of this test?
Response: inactive

Request: For Cc1csc(NC(=O)C2CCN(S(=O)(=O)c3ccccc3)CC2)n1 , what call appears in the results of this test?
Response: inactive

Request: For COCc1cc(=O)[nH]c(-c2ccc(C(F)(F)F)cc2)n1 , what call appears in the results of this test?
Response: inactive

Request: For Cc1nc2c(-c3ccccc3)c(C)[nH]n2c(=O)c1Cl , what call appears in the results of this test?
Response: active

Request: For CCCc1cc(=O)n2[nH]c(C)c(-c3ccc(Cl)cc3)c2n1 , what call appears in the results of this test?
Response: active

Request: For CN(CCc1ccccn1)C(=O)CCC1CCCN(Cc2ccccc2OC(F)F)C1 (stereo not drawn) , what call appears in the results of this test?
Response: inactive

Request: For Cc1ccc(Cc2c(-c3ccc(C)cc3)nc3c4ccccc4ccn23)cc1 , what call appears in the results of this test?
Response: inactive

Request: For CCOC(=O)c1[nH]c2ccc(C)cc2c1N=C(C)N(C)C , what call appears in the results of this test?
Response: inactive

Request: For CCCc1cc(=O)n2[nH]c(SCc3ccccc3)nc2n1 , what call appears in the results of this test?
Response: inactive

Request: For CCOc1cc(-c2noc(CCC(=O)N3CCOCC3)n2)ccc1OC , what call appears in the results of this test?
Response: inactive

Request: For CC1CCCCN1C(=O)CCS(=O)(=O)Cc1ccccc1 (stereo not drawn) , what call appears in the results of this test?
Response: inactive

Request: For CC(C)C(C(=O)NC1CCCCC1)N(CC1CCCO1)C(=O)CNS(=O)(=O)c1ccc(F)cc1 (stereo not drawn) , what call appears in the results of this test?
Response: inactive

Request: For O=C(CCCN1C(=O)CSc2ncccc21)N1CCN(c2cccc(C(F)(F)F)c2)CC1 , what call appears in the results of this test?
Response: inactive

Request: For CCNC(=O)CC1C(=O)N(c2ccc(F)cc2)C(=O)N1Cc1cccs1 (stereo not drawn) , what call appears in the results of this test?
Response: inactive

Cited source for all entries: PubChem BioAssay AID588726
